The origin of these recorded values is patent US20230391879A1.

- Measured on: T1, Canine IL-31RA ECD-10His (canine)
- T1 construct: made in HEK-293 or CHO cells and coated on the ELISA plates; also called canine IL-31 receptor alpha extracellular domain HIS-tagged protein; cIL-31RA
- T1 chain: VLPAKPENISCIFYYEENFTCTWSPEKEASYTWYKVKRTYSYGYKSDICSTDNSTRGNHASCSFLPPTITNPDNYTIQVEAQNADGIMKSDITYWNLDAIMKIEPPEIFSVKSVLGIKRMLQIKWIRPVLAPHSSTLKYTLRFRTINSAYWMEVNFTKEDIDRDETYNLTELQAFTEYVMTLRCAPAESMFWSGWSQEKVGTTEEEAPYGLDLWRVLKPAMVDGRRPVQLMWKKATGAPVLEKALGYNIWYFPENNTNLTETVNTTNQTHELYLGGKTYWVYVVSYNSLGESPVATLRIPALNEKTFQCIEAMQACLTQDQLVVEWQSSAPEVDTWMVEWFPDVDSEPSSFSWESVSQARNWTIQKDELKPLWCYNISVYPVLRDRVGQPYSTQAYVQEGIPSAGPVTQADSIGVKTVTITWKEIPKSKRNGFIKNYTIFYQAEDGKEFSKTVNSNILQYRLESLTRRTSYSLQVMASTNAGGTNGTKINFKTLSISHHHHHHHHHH
- Experiment notes: ELISA, IL-31RA coated

| Binder | binding result |
| --- | --- |
| 48B1 (antibody, V domains shown, Rat monoclonal antibody from a hybridoma; also called rat mAb 48B1) VH: EVQLVESGGGLVQPGRTLKLFCVASGFTFNNYWMTWIRQAPGKGLEWVASITNTGGSTYYPDSVKGRFTISRDNAKSTLYLQMNSLRSEDTATYYCTRGPDYGGHLNWFVYWGQGTLVTVSS VL: DIVMTQSPTSMSISVGDRVTMNCKASQNVGSNVDWYQQKTGQSPKLLIYKASNRYTGVPDRFTGSGSGTDFTFTISNMQAEDLAVYYCMQSNSYPPTFGGGTKLELK | binds |
| 22B4 (antibody, V domains shown, Rat monoclonal antibody from a hybridoma; also called rat mAb 22B4) VH: EVQLVESGGGLVQPGRSLKLSCVASGFTFNKYWMTWIRQAPGKGLEWVASITNTGGSSYYSDSVKGRFTISRDNAKSTLYLQMNSLRSEETATYYCTRGPDYGGHLNWFAYWGQGTLVTVSS VL: DIVMTQSPTSMSISVGDRVTMNCKASQNVGSNVDWYQEKTGQSPKLVIYKASNRYTGVPDRFTGSGSGTDFTFTISNMQAEDLAVYYCMQSNSYPPTFGGGTKLELK | binds |
| 7D7 (antibody, V domains shown, Rat monoclonal antibody from a hybridoma; also called rat mAb 7D7) VH: EVQLVESGGGLVQPGRSLKLSCVASGFTFNNYWMTWIRQAPGKGLEWVASITNTGGSTFYPDSVKGRFTISRDNAKSTLYLQMNSLRSEDTATYYCTRGPDYGGHLNWFAYWGQGTLVTVSS VL: DIVMTQSPTSMSISAGDRVTMNCKASQNVGSNVDWYQQKTGQSPKLLIYKASNRYTGVPDRCTGSGSGTDFTFTISNMQAEDLAVYYCMQSNSYPPTFGGGTKLELK | binds |
